Where these numbers come from: PubChem BioAssay (NCI)

Tested on: HOP-62 NSCLC
EXPERIMENT_NOTES: NCI tumour cell line growth inhibition, 48 h
Catalogue of TGI readings, one per entry.

Consider the following illustrative entries.
COc1ccc(-c2ccc(/C=N/n3c(COc4ccc(Cl)cc4Cl)nn(CN4CCN(C)CC4)c3=S)o2)c([N+](=O)[O-])c1; 79.5 µM
O=c1c2cccnc2cc(-c2ccccc2)n1CCO; > 100 µM
C=CCN(CC=C)C(=O)c1cc(C)nc2c1c(=O)n(-c1ccccc1)c(=O)n2CC(O)CN1CCN(c2ncccn2)CC1 (stereo unspecified); > 100 µM
O=C(N/N=C/c1ccccc1Cl)c1ccccc1Nc1ccnc(C(F)(F)F)c1; 8.18 µM
COc1ccc(/C=C2\CCCCCC2=O)cc1; > 100 µM
COC(=O)c1ccc(N=NN(C)COc2ccc([N+](=O)[O-])cc2)cc1; > 100 µM

Read off the recorded TGI for `CN(/N=C/c1ccccn1)C1=NCCCCN1` > 100 µM

Read off the recorded TGI for `N#Cc1c(Cl)c2ccccc2n2c1nc1ccccc12` > 100 µM

Read off the recorded TGI for `Cc1cccc(C)c1NC(=S)NC=C(C(N)=O)C(N)=O` > 100 µM

Read off the recorded TGI for CCCCCCCCC/C=C1\CC(CO)(COC(=O)C2CCCCC2)OC1=O (stereo unspecified) 27.9 µM
